Value type: melting point

These solved cases illustrate the format of a correct answer.
>  <Compound>
Cc1ccc(N2C(=O)N(CC(=O)Nc3c(C(C)C)cccc3C(C)C)C(=O)C23CCC(O)CC3)cc1 (stereo unspecified)

>  <melting point>
142 to 144 °C

$$$$
>  <Compound>
CC(C)CCNCCCN1C(=O)C2(COc3cc4c(cc32)CCO4)c2ccccc21 (stereo unspecified)

>  <melting point>
98 to 101 °C

$$$$
>  <Compound>
CC1CCCC1n1ncc(-c2ccc(S(C)(=O)=O)cc2)c(-c2ccc(F)cc2)c1=O (stereo unspecified)

>  <melting point>
180 to 181 °C

$$$$
>  <Compound>
COCOc1c(-c2cncc3cccc([N+](=O)[O-])c23)ccc(OC)c1OC

>  <melting point>
138 to 140 °C

$$$$
>  <Compound>
Clc1ccc2c(c1)Oc1ccccc1C=C2CBr

>  <melting point>
117 to 119 °C

$$$$

Which melting point is listed for "Cc1ccccc1-c1ccc(Cl)cc1C(=O)O" ?
135 to 137 °C

----------
The reader will find reported melting point values listed item by item below.

>  <Molecule>
CN1CCN(Cc2ccccc2)CC(NC(=O)c2n[nH]c3ccccc23)C1 (stereo not drawn)

>  <melting point>
192 to 194 °C

$$$$
>  <Molecule>
CCOC(=O)c1nnnn1Cc1ccc(OC)cc1

>  <melting point>
52 °C

$$$$
>  <Molecule>
COC(=O)c1ccc(NC(C)=O)cc1O

>  <melting point>
148 to 151 °C

$$$$
>  <Molecule>
CCCCc1nc(-n2cccc2)c(C(=O)OCC)[nH]1

>  <melting point>
74 to 77 °C

$$$$

Which melting point is listed for "CCCC[C@H](NC(=O)[C@H](COC(C)(C)C)NC(=O)OCc1ccccc1)C(=O)CSCc1ccco1" ?
71 to 73 °C

Consider next the molecule CC(=O)N[C@H](COC1CCCCO1)C(=O)NCCO[N+](=O)[O-] (stereo partly drawn) in the same way.
93 to 95 °C

Consider next the molecule "O=[N+]([O-])c1cccc(Oc2nccnc2Cl)c1" in the same way.
119 to 121 °C

Consider next the molecule CCOC(=O)C1CNc2ccc([N+](=O)[O-])cc2O1 (stereo not drawn) in the same way.
130 to 132 °C

Consider next the molecule O=C(CCC(O)c1ccccc1)NCc1ccccc1 (stereo not drawn) in the same way.
92 to 94 °C

Consider next the molecule "CCn1c(=O)n(OCc2ccccc2)c(=O)c2cc(F)c(F)cc21" in the same way.
133 to 135 °C

Consider next the molecule "COc1c(Cl)c(OC)c2cnoc2c1Cl" in the same way.
138 to 140 °C

Consider next the molecule "COc1ccc(N2CCOCC2)c2sc(-c3ncc(-c4csc5ccccc45)[nH]3)nc12" in the same way.
161 to 162 °C

Consider next the molecule "O=C(CCCCCCC(=O)N1CCN(CC(c2ccccc2)c2ccccc2)CC1)NO" in the same way.
117 to 118 °C

----------
The reader will find reported melting point values listed item by item below.

These solved cases illustrate the format of a correct answer.
>  <Molecule>
COCC1(C)CCCOc2cc(/C=C/c3ccc(C(=O)O)cc3)ccc21 (stereo not given)

>  <Value type>
melting point

>  <Result>
194 to 196 °C

$$$$
>  <Molecule>
CCOC(=O)c1cnc(NC(=O)C(Cc2ccc(F)cc2)c2ccc(S(C)(=O)=O)cc2)cn1 (stereo not given)

>  <Value type>
melting point

>  <Result>
99 to 100 °C

$$$$
>  <Molecule>
CC(c1ccc(F)cc1)N1CCN(c2cc(Oc3cccc4c(=O)[nH]ccc34)ncn2)CC1 (stereo not given)

>  <Value type>
melting point

>  <Result>
249 °C

$$$$
>  <Molecule>
N#Cc1c(-c2ccc(Cl)cc2)[nH]c(C(F)(F)F)c1Cl

>  <Value type>
melting point

>  <Result>
242 to 243 °C

$$$$

Attention now shifts to the item below.
Which melting point is listed for "O=C(NCCO[N+](=O)[O-])c1ccc(Br)o1" ?
61 to 63 °C

----------
The reader will find reported melting point values listed item by item below.

>  <Molecule>
COC(=O)c1c(C(=O)OC)c2sc3ccccc3n2c1-c1ccc(F)cc1

>  <melting point>
186 to 187 °C

$$$$
>  <Molecule>
CC(=O)N(c1ccc(N2CCN(C)CC2)cc1)c1ncc2c(n1)S/C(=C/c1cn(C(C)=O)c3ccccc13)C(=O)N2

>  <melting point>
289 to 292 °C

$$$$
>  <Molecule>
COc1cc(OC)nc(C(C)(C#N)c2cccc(Cl)c2)n1 (stereo unspecified)

>  <melting point>
89 to 93 °C

$$$$
>  <Molecule>
CC(/C=C1/C(=O)N(c2ccccc2)C1c1ccccc1)=NOCCCN1CCCCC1 (stereo unspecified)

>  <melting point>
120 to 122 °C

$$$$
>  <Molecule>
Cc1cc(C)cc(-c2c(-c3ccncc3)sc3nc(=O)cc(N)n23)c1

>  <melting point>
275 to 278 °C

$$$$

Which melting point is listed for "N#Cc1ccc(Oc2ccc(CC(=O)OCc3ccccc3)cc2)nc1" ?
96 to 97 °C

Consider next the molecule "Fc1ccc2c(-c3ccc(OC[C@H]4CO4)cc3)noc2c1" in the same way.
132 to 133 °C

Consider next the molecule CN1C(=O)C(c2cccc(-c3cccnc3F)c2)(c2cc(C=NO)n(CCCF)c2)N=C1N (stereo unspecified) in the same way.
119 to 123 °C

Consider next the molecule "CN(C)C=CC(=O)c1ccccc1" in the same way.
88 to 91 °C

Consider next the molecule "ON=Cc1c(-c2ccccc2Cl)ccc2c1OCO2" in the same way.
182 to 183 °C

Consider next the molecule "Cc1c(CO)ncnc1N1CCCC1" in the same way.
112 to 114 °C

----------
The reader will find reported melting point values listed item by item below.

These solved cases illustrate the format of a correct answer.
>  <Molecule>
COC(=S)NCc1cn(-c2ccc(-n3cccc3)cc2)nn1

>  <melting point>
150 °C

$$$$
>  <Molecule>
COc1ccccc1-c1csc(Nc2ccc(C)cn2)n1

>  <melting point>
228 to 230 °C

$$$$

Which melting point is listed for "CC1=C(C(=O)OCCN2C(=O)c3ccccc3C2=O)C(c2cccc([N+](=O)[O-])c2)C(C(=O)OCCN2C(=O)c3ccccc3C2=O)=C(C)N1" ?
92 to 94 °C

Consider next the molecule "CC(=O)NC[C@H]1CN(c2ccc(N3CCC(=CC#N)C(C)(C)C3)c(F)c2)C(=O)O1" in the same way.
150 to 152 °C

Consider next the molecule "CN(c1ccc(Cl)cc1)S(=O)(=O)c1cccc(C(=O)Nc2ccc(Cl)cc2C#N)c1" in the same way.
157 to 158 °C

Consider next the molecule CCC1(c2ccccc2)Cc2cc(O)c(Cl)c(Cl)c2C1=O (stereo not drawn) in the same way.
177 to 179 °C

Consider next the molecule "NC(=O)c1c(F)ccc(OCC(=O)O)c1F" in the same way.
152 to 153 °C

----------
The reader will find reported melting point values listed item by item below.

>  <Molecule>
Cc1oc(-c2ccccc2)nc1COc1ccc(COc2cncc(CC(=O)O)c2)cc1

>  <melting point>
139 to 140 °C

$$$$
>  <Molecule>
CCOC1=CC2=CCC3C(CCC4(CC)C(=O)CC(OC(C)=O)C34)C2CC1 (stereo not drawn)

>  <melting point>
189 °C

$$$$
>  <Molecule>
COc1ccc2c(Cl)cc(-c3ccc(C)cc3)nc2c1

>  <melting point>
129 to 131 °C

$$$$
>  <Molecule>
COC(COc1ccc(C(=O)C(C)(C)O)cc1)OC

>  <melting point>
52 to 53 °C

$$$$
>  <Molecule>
Cc1nc(-c2ccc(OC(F)(F)F)cc2)sc1C(=O)O

>  <melting point>
179 to 181 °C

$$$$

Which melting point is listed for "O=C(CN1CCCC1)c1ccc(F)cc1" ?
49 to 50 °C

Consider next the molecule "Cc1ccsc1CNC(=O)C(=O)NCCc1ccccn1" in the same way.
122 to 124 °C

Consider next the molecule CC(C)OC(=O)C1CCCN1S(=O)(=O)c1ccc(N2CCC(NCC(O)c3ccc(O)c(NS(C)(=O)=O)c3)CC2)cc1 (stereo not drawn) in the same way.
52 to 58 °C

Consider next the molecule "COc1ccc2ncn(/C=C/C(=O)O)c(=O)c2c1" in the same way.
298 to 299 °C

Consider next the molecule "O=C(O)c1cc(-c2ccncc2)n[nH]c1=O" in the same way.
> 310 °C

Consider next the molecule Oc1ccc2c(c1)OCC(c1ccccc1)C2c1ccc(OCCN2CCCCC2)cc1 (stereo not drawn) in the same way.
168 to 170 °C

Consider next the molecule Cc1nc(CCN2CCOCC2)c2c(n1)N(CC#N)C(=O)C(N)O2 (stereo not drawn) in the same way.
126 to 128 °C
